Origin of values: patent US20240158348A1

- Tested on: goosegrass (Eleusine indica)
- assay text: Test C preemergence, goosegrass
- Assay type: in vivo
- measurement parameters: 31 g ai/ha Preemergence; 0 is no effect, 100 is complete control
Plant response rating (0 to 100 scale), Goosegrass values for the compounds below.
Form: value (number only, do not type unit).

A selection of reference data follows.
What reported Plant response rating (0 to 100 scale), Goosegrass corresponds to Cc1cc(C)c(N2CCC(OCC3CCC3(F)F)C2=O)cc1NS(=O)(=O)C(F)(F)F (stereo not shown) [Compound 52] on goosegrass (Eleusine indica)?
80

What reported Plant response rating (0 to 100 scale), Goosegrass corresponds to Cc1c(N2CCC(OC3CC3)C2=O)cc(N(COC(=O)C(C)(C)C)S(=O)(=O)C(F)(F)F)c(C)c1F (stereo not shown) [Compound 23] on goosegrass (Eleusine indica)?
70

What reported Plant response rating (0 to 100 scale), Goosegrass corresponds to C#CCO/N=C1\CCN(c2cc(NS(=O)(=O)C(F)(F)F)c(C)cc2C)C1=O [Compound 13] on goosegrass (Eleusine indica)?
90

Further cases:
What reported Plant response rating (0 to 100 scale), Goosegrass corresponds to Cc1cc(C)c(N2CCC(OCC3CCC3)C2=O)cc1NS(=O)(=O)C(F)(F)F (stereo not shown) [Compound 43] on goosegrass (Eleusine indica)?
60

What reported Plant response rating (0 to 100 scale), Goosegrass corresponds to Cc1cc(C)c(N(COC(=O)C(C)(C)C)S(=O)(=O)C(F)(F)F)cc1N1CCC(OCC2CC2)C1=O (stereo not shown) [Compound 53] on goosegrass (Eleusine indica)?
60

What reported Plant response rating (0 to 100 scale), Goosegrass corresponds to Cc1cc(C)c(N2CCC(OCC3CC3(F)F)C2=O)cc1NS(=O)(=O)C(F)(F)F (stereo not shown) [Compound 41] on goosegrass (Eleusine indica)?
90

What reported Plant response rating (0 to 100 scale), Goosegrass corresponds to Cc1cc(C)c(N2CCC(OC3CC3)C2=O)cc1NS(=O)(=O)C(F)(F)F (single isomer, unassigned) [Compound 30] on goosegrass (Eleusine indica)?
90
